test system: PC-3 prostate; test: NCI tumour cell line growth inhibition, 48 h

>  <COMPOUND>
CC(C)=CCc1c(OC(=O)c2c(C)cc(O)cc2O)cc(CO)c(CO)c1O

>  <INEQUALITY OPERATOR>
=

>  <TGI [µM]>
36.8

$$$$
>  <COMPOUND>
BrCCCCCOc1ccc(-c2c3ccccc3c(-c3ccc(OCCCCCBr)cc3)c3ccccc23)cc1

>  <INEQUALITY OPERATOR>
>

>  <TGI [µM]>
100

$$$$
>  <COMPOUND>
C=C1C(=O)O[C@H]2C[C@@H]1CC/C(C)=C/CC/C(C)=C/CC[C@H]2C

>  <INEQUALITY OPERATOR>
=

>  <TGI [µM]>
20.9

$$$$
>  <COMPOUND>
CC(C)/C(Cl)=N\OC(=O)Nc1ccccc1F

>  <INEQUALITY OPERATOR>
=

>  <TGI [µM]>
30.9

$$$$
>  <COMPOUND>
COC(=O)C1Cc2c(OC)ccc(OC)c2CC(C(=O)OC)C1=O (stereo not given)

>  <INEQUALITY OPERATOR>
>

>  <TGI [µM]>
100

$$$$
